- System: PPARg:RXRa DBDmut IVT, anti-RXR (DBD mutation: RXRa K156A/R161A, NR concentration 270 nM, RXRa partner concentration 90 nM)
- Measurement Protocol: PBM binding z-score (relative to random genomic background probes); higher = stronger binding; sequences stand for … in GC…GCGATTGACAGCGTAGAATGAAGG
Label 1 (yes) for high-side PBM binding z-score (at or above 2) and 0 (no) for low-side PBM binding z-score (below it).

- CGTCCAAGGTCAAGGTCTGTGAAAGAGACTCGAA: 1 (yes)
- CGAACTATGTCATCCAGGACAGTGAATACATTGA: 1 (yes)
- CCAGACAGGTGAAACGTAACTCAGTCTGGTACGC: 1 (yes)
- CCTTACGGGTCACTGACAGGTAATAGCATTTGGA: 1 (yes)
- GCTCGGAGGACAAGGTCAAAGCTTTGTCCGTAGA: 0 (no)
- CCTACTTGGCCATTCAGAGGTCATTGATCATATG: 0 (no)
- ATCGAAAGGTCGAGAGGTGAGTATACAGAAAGGC: 0 (no)
- CAAACTGGGTCAAAGGTCAAAGTCGAGCCAACCA: 1 (yes)
- ACAGACAGGTGATGAGGGTAACTCAGGCTATCAT: 0 (no)
- GCTCGGAGGACAAGGTCATAGCTTTGTCCGTAGA: 0 (no)
- ATCTTTAGGTAAGACTCAGTTCAGTGAAGAACGC: 0 (no)
- CGAACTAGGTCTTCCAGGACAGTGAATACATTGA: 1 (yes)
- ACTAGCAGGCCAAGTTTGGGTCACTCGAACAAAG: 0 (no)
- TCTTGTAGATCACCAGGTTAAGAAAGCTGGCCAA: 1 (yes)
- CGTACTGGGCCATCAGGTCATTGATATCAACGTT: 1 (yes)
- ACTAGCAGGCCAAGTTTGGGACACTCAAACAAAG: 0 (no)
- CTTCCAAGGTGAACAAGGTCGTTGATTACTATTC: 1 (yes)
- GGAACGAGGGCATTCGAGTTGATAGGATGGCGAT: 1 (yes)
- TAGCCTATGTCATTGGGCCAGTATAGTACGCATC: 0 (no)
- TCTCGGAGGACACGAAGGTGAGAGCTTTCCAGAG: 0 (no)
- CGTACTGGGCCACGAAAGGTCATTGATTCAGTGA: 1 (yes)
- GATACAGGGTCAGCTAGAGGCCGGAGTATGGAAA: 0 (no)
- CACACTAGGTCACCGGAAGGTCAAAGTCCGCATG: 1 (yes)
- TCGAGTTGGTTAGGGGCATTCAGAATGGCGTCGA: 0 (no)

---

Reported PBM binding z-score values for the following sequences.
- System: PPARg DBDmut:RXRa IVT, anti-PPARg (DBD mutation: PPARg1 K132A/R137A, NR concentration 270 nM, RXRa partner concentration 90 nM)
- Measurement Protocol: PBM binding z-score (relative to random genomic background probes); higher = stronger binding; sequences stand for … in GC…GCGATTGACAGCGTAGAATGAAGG
Observable: PBM binding z-score

• ATCTCTAGGTAGAAGTTCAGTGAATCCCGAGGAT = 0.95
• CGTCCAAGGTCAGAGAGGCCAGTGAATGCCGAGT = -0.142
• CACGAAAGGTCGGTTGAGGTGAGTATACGGATAA = 1.19
• CGTCCAAGGTAAAGGTCAGTGAAAGAGACTCGAA = -0.427
• AGAATGAGGTTAACATCAGGGAAACAGAATACAT = 1.84
• CCTACTGGGCCACGAAAGGTCACTGATTCAGTGA = 0.0808

---

- System: LXRa homodimer (NR concentration 270 nM)
- Measurement Protocol: PBM binding z-score (relative to random genomic background probes); higher = stronger binding; sequences stand for … in GC…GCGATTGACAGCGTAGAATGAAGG
Observable: PBM binding z-score

* CTCGAAAGGTCGTGTTCAGGTGAGTATACCAAAC | 0.232
* AGAACGAGAGCACGCTGAGTTGATAGCAGAGTAG | -0.51
* CCGACTAGGGCAAAGGTTACCATACTCAGTACGA | 0.518
* TAGCCTAGGTCATGCGGGCCCGTATAGTGTCGGC | 0.169
* GCAGACAGGTGAAATGCAGGTAACTCAGGGTGGC | -0.625
* AGGACGAGGGCAATGAGTTGATAGCACGGGTGGC | -0.256
* ACTTACGGGTCAACGTGGTTATAGCACGCGTATA | 0.422
* ATATGTGGGTTAGCTGGGGTCATTCAGACTAGGC | 2.93
* CTTACTGGGCCAAGGTCATTGATCAGTCAAAGCA | 1.27
* TCTTGTAGATCAGCAGGTTAAGATAGCTGGCCAA | -0.176
* CAGCCTAGGTTAGGGCCAGTATAGGAGGAACGTT | -0.564
* CAAACTAGGTCACAAAGGTCAAAGTCCGTGCGTA | 7.48

---

- Test system: PPARg homodimer (NR concentration 180 nM)
- Measurement Protocol: PBM binding z-score (relative to random genomic background probes); higher = stronger binding; sequences stand for … in GC…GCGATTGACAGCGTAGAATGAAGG
Label y for high-side PBM binding z-score (at or above 1) and n for low-side PBM binding z-score (below it).

- CAAACTAGGTCAAAAGTCAAAGTCGAGCCAACCA: y
- GTACCAAGGTGAATAGGTCATTGATGAGTAGGCG: y
- ATCTCTAGGTAAAGATAGTTTAGTGAATGCAAAT: n
- CTACCAAGGTGAGCAAGGTCGTTGATTACTATTC: n
- CCGAGTAGGTTATGGGGTATTCAGGCAACGGTGA: y
- ATATGAAGGTTAAGGGTCATTCAGGTTGGTTCGC: y
- ACTTACGGGTCAATGAGGTTATAGCACGCGTATA: y
- TCGAGTAGGTTACCAATGGGACATTCAGCTTTCT: n
- CCAACTGGGCCAAGGTCATTGATCAGTCAAAGCA: y
- TCGAGCAGGTTAGGGGCATTCAGAATGGCGTCGA: n
- TCTATTAGTTGAAGGGCACCCGACGAGTCCGTTT: y
- TCTATTAGTTGATTAGGGAAACCGAAACAGCGGA: y

---

- System: PPARa:RXRa (NR concentration 270 nM, RXRa partner concentration 90 nM)
- Measurement Protocol: PBM binding z-score (relative to random genomic background probes); higher = stronger binding; sequences stand for … in GC…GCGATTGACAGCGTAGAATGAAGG
Observable: PBM binding z-score

* TAGACTAGGTCATGGGCCAGTATACCACGCGAAC | 4.41
* ATCGAAAGGTCGACGTGGTGAGTATACACCGTTT | 4.08
* CGTCCAAGGTCAAAGGTCAGTCAAGAGATGACGG | 7.07
* CAGACTGGGGCAAAGGTTACCATACTCAGTACGA | 5.94
* GCTAGCAGGCCATTCGGGTCACTCAATGACGGGC | 1.9
* CACACTAGGTCAAGGTCAAAGTCGGTTTGTGCCA | 5.71
* ACTCGGAGGACAAAGGTCCGAGCTACGCCAGTGA | 0.672
* CCTTACGGGTCACGAGGTGATAGCACGACGAGCG | 5.82
* CTCGAAAGGTCGGTTGAGGTGAGCATACGGATAA | 2.74
* ATATGTAGGTTTTCGGGTCATTCAGTTTGCGCAT | 4.19
* CCTACTGGGGCAGAAAGGTTACCATACCATCCGG | 2.14
* ATATTTAGGTTAAGGGTCATTCAGGTTGGTTCGC | 6.38
* TAGGCTAGGTCAGATCGGGCCAGTATACGCTATA | 1.42
* ATATGTAGGTTACATCCGGGTCATTCAAGCTATG | 4.7
* AGAAGGAGGTTATTAAGATCAGGGAATTGCGGTC | 2.01
* TTGCCAAGGTGAGCTGAGGTCGTTGATCCAACTC | 1.46
* GTACCAAGGTAAATAGGTCGTTGATGAGTAGGCG | 1.73
* TCTTATAGATCAAGCAGGTTAAGAAAGCCTGAGT | 0.961
* GCATGTAGATCAAGGTTAAGAAAGACTAAGCTAA | 1.47
* CCTTCTAGGTCAATGGTCAGCTAAAGCAGCTCGC | 4.34
* CCTCGGAGGACAGCAGGAGGTCAGAGCTGCCAGA | 1.48
* CGAACTAGGTCAGAAAAGGACAGTGAAGGATGAT | 2.87
* CGAACTAGGTCATCCAGGAGAGTGAATACATTGA | 4.89
* GCGTCTGGGGCATCAGCAGGTTACCATAACTTAA | 0.996
* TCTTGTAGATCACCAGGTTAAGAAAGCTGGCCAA | 1.47
* AGAACGAGGGGACGCTGAGTTGATAGCAGAGTAG | -0.232
* GCATATAGGAAATACAAGGTGAAAGTCCGATTGT | 0.727
* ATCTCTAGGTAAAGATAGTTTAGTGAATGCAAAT | 0.104
* AGAACCAGGGCAATGAGTTGATAGCACGGGTGGC | 0.717
* TGTCAAAGTTCAATGGTAACGTAAGTATCCACAC | 4.31
* GCTCGGAGGACAAGGTCGGAGCTTTGTCCGTAGA | 0.143
* AGAACGAGGGTACGCTGAGTTGATAGCAGAGTAG | -0.00229
* CCTATTAATTGACCATAAGGGCAACCGAAGCTCG | 0.737
* TCTTGTAGATCAACAGGAGGATAAGAAAGATCGA | 0.337
* AGTATGAGGTTATTAAGATCAGGGAATTGCGGTC | 2.12
* GCTGCTAGGTCAGGTTGGGCAGCTAACGGGTACG | 0.991
* AGAATCAGGTTAAGATCAGGGAAACAGAATACAT | 1.68
* CCGACTGGGGCGTAAGGTTACCATAAGCCAGCCC | 1.35
* ATCGCAAGGTCGAGGTGAGTATAGAGAAAGGGAA | 2.5
* CATACAGGGTCAGCTATGCCAGAGTAGGGACGGC | 4.21
* GCGACTGGGGCAAAGCAGGTTGCCATAAGGTTGG | 0.461
* TCATATAGGTAATACAGGTGAAAGTGGGCATCTA | 2.33
* CCTACAGGGCCAAAAAGGTCATTGATGCCGATAA | 4.61
* TCGAGTAGGTTAGTCGGGTCATTCAGCCAACATA | 3.14
* CTACCAAGGTGAACAAGGTCGTAGATTACTATTC | 2.66
* TGAATAAGGTTATAAGATCAGGGAACGTTGCAAA | 2.31
* CCTCGGAGGAAAACAGGAGGTCAGAGCTGCCAGA | 2.13
* AGTATTAGTTGACTTAGGGCAACCGATACGACGC | 0.128
* ATATGTAGCTTACATCCGGGTCATTCAGGCTATG | 2.39
* TCATATAGGTAGAAGGTGAAAGTCGGTGTGGTAA | 3.46
* TCTAGTTGGTCAAAGGTCACACACTCGAAATGCG | 6.56
